# Test system: H9c2 cells
# method_summary: Cytotoxicity in H9c2 cells (CCK-8, 24 h)
# Assay type: cell-based
property_label: H9c2 CC^50 (µM)
Unit µM implied. Number only.

// solved cases for H9c2 CC^50 follow
Cc1cc(COc2ccc(NC(=N)N)cc2)cc(COc2ccc(NC(=N)N)cc2)c1    100
N=C(N)c1ccc(OCc2cccc(COc3ccc(C(=N)N)cc3)n2)cc1 [drawing 857]    50
Cn1c(CCCCc2nc3ccc(C(=N)N)cc3n2C)nc2ccc(C(=N)N)cc21 [drawing 850]    50
Cn1c(-c2ccc(-c3ccc(C(=N)N)cc3)s2)nc2cc(-c3ccc(C(=N)N)cc3)ccc21 [drawing 848]    50
N=C(N)c1ccc2[nH]c(-c3ccc(-c4ccc(-c5ccc(-c6ccc(-c7nc8cc(C(=N)N)ccc8[nH]7)cc6)s5)s4)cc3)nc2c1 [drawing 849]    50

# N=C(N)c1ccc(OCc2cccc(COc3ccc(C(N)=O)cc3)n2)cc1 with H9c2 cells: H9c2 CC^50 is 50

H9c2 CC^50 on H9c2 cells for COc1cc(C2=NCCN2)ccc1OCc1cccc(COc2ccc(C3=NCCN3)cc2OC)c1F [drawing 868] is 50

For the molecule Fc1c(COc2ccc(C3=NCCN3)cc2)cccc1COc1ccc(C2=NCCN2)cc1 [drawing 866] , the measured H9c2 CC^50 on H9c2 cells was 25

Short answer on H9c2 cells for N=C(N)c1ccc(OCOc2ccc(C(=N)N)cc2)cc1 [drawing 858] , H9c2 CC^50: 50

The molecule N=C(N)c1ccc2nc(-c3ccc(OCC(F)(F)C(F)(F)COc4ccc(-c5nc6ccc(C(=N)N)cc6[nH]5)cc4)cc3)[nH]c2c1 [drawing 847] , tested on H9c2 cells, showed H9c2 CC^50 of 50

Value (H9c2 CC^50, H9c2 cells) for record N=C(N)c1ccc(OCc2ccc(-c3ccc(C(=N)N)cc3)cc2)cc1 [drawing 852] = 50

Field H9c2 CC^50 (system: H9c2 cells) for entry N=C(N)c1ccc(OCc2ccc(COc3ccc(C(=N)N)cc3)cc2)cc1 [drawing 869] = 50

The molecule N=C(N)c1ccc(OCc2cccc(COc3ccc(C(=N)N)cc3)c2)cc1 [drawing 853] , tested on H9c2 cells, showed H9c2 CC^50 of 50

// molecule N=C(N)c1ccc(Oc2ccc(C(=N)N)cc2)cc1 [drawing 851] , assay H9c2 cells, H9c2 CC^50 value: 50

###

Below, each entry is listed with its recorded HEK293 cytotoxicity at 100 μM ("100 μM result in x%").
# Test system: HEK293 cells
# method_summary: Cytotoxicity in HEK293 cells (CCK-8, 24 h)
# Assay type: cell-based
# test_context: NT=not toxic

Take a look at these entries with their results.
COc1cc(C(=N)N)ccc1OCc1cc(C)cc(COc2ccc(C(=N)N)cc2OC)c1 [drawing 871]    100 μM result in 10%
N=C(N)c1ccc(OCc2ccc(COc3ccc(C(=N)N)cc3)cc2)cc1 [drawing 869]    100 μM result in 30%

Read the next record carefully.
Reported HEK293 cytotoxicity at 100 μM ("100 μM result in x%") for N=C(N)c1ccc(OCc2cc(COc3ccc(C(=N)N)cc3)cc(COc3ccc(C(=N)N)cc3)c2)cc1 [drawing 875] was 100 μM result in 10%

###

# Test system: E. coli
# method_summary: Sensitization of E. coli to erythromycin (sensitization fold from IC90, OD600, 20 h)
# Assay type: cell-based, Escherichia coli
# test_context: erythromycin; compound at 25 μM; NA=no activity
property_label: SF (E. coli) at 25 μM

Some solved cases for reference:
Cc1cc(OCc2ccc(C(=N)N)cc2)cc(OCc2ccc(C(=N)N)cc2)c1 [drawing 736]    32-fold at 25 μM
Cc1cc(COc2ccc(C(=N)N)cc2F)cc(COc2ccc(C(=N)N)cc2F)c1 [drawing 747]    64-fold at 25 μM

Here is another molecule to look at.
SF (E. coli) at 25 μM recorded for this molecule, Cc1cc(COc2ccc(CN)cc2)cc(COc2ccc(CN)cc2)c1 [drawing 733] , is 4-fold at 25 μM

###

The entries below come with measured H9c2 CC^50 values attached.
# Test system: H9c2 cells
# method_summary: Cytotoxicity in H9c2 cells (CCK-8, 24 h)
# Assay type: cell-based

N=C(N)c1ccc(OCCCCCCOc2ccc(C(=N)N)cc2)cc1 [drawing 862]    <5 µM
N=C(N)c1ccc(OCCCCCCCCOc2ccc(C(=N)N)cc2)cc1 [drawing 855]    <5 µM
Cc1cc(-c2nc3cc(C(=N)N)ccc3n2C)sc1-c1ccc(OCCCCOc2ccc(C(=N)N)cc2)cc1 [drawing 856]    50 µM
COc1cc(C(=N)N)ccc1OCc1cccc(COc2ccc(C(=N)N)cc2OC)c1F [drawing 872]    12.5 µM
Cc1cc(COc2ccc(C(=N)N)cc2)cc(COc2ccc(C(=N)N)cc2)c1 [drawing 863]    50 µM

According to the records, this compound CC(C)(C)c1cc(COc2ccc(C(=N)N)cc2)cc(COc2ccc(C(=N)N)cc2)c1 [drawing 873] displays H9c2 CC^50 of 25 µM

Given item Cc1cc(COc2ccc(C3=NCCN3)cc2)cc(COc2ccc(C3=NCCN3)cc2)c1 [drawing 864] , the value recorded as its H9c2 CC^50 is 25 µM

###

# Tested on: H9c2 cells
# method_summary: Cytotoxicity in H9c2 cells (CCK-8, 24 h)
# Format: cell-based
property_label: H9c2 CC^50

Worked examples, 2 molecules total:
c1cc(COc2ccc(C3=NCCN3)cc2)cc(COc2ccc(C3=NCCN3)cc2)c1 [drawing 865]    <12 µM
CC(C)(C)c1cc(COc2ccc(C(=N)N)cc2F)cc(COc2ccc(C(=N)N)cc2F)c1 [drawing 883]    25 µM

Could you now look at the following molecule, please?
In plain terms, Fc1cc(C2=NCCN2)ccc1OCc1cccc(COc2ccc(C3=NCCN3)cc2F)c1F has a documented H9c2 CC^50 of 50 µM

// provenance: patent US12595251B2
